assayed_target: D(3) dopamine receptor (Homo sapiens)
Sequence (P35462 whole entry): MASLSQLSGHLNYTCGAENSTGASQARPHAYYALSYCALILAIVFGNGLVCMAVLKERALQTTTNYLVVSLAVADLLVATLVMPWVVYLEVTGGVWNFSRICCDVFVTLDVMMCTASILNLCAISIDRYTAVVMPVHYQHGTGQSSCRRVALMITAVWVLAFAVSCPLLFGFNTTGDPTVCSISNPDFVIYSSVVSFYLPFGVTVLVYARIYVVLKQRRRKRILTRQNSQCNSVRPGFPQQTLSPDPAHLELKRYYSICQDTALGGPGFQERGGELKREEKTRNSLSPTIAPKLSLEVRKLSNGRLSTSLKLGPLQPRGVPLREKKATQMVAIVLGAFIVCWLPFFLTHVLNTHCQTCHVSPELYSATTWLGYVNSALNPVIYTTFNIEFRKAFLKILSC
measurement_name: Ki

Entry COc1ccc(N2CCN(CCCNC(=O)Cn3c(=O)c4cccn4c4c(C)ccnc43)CC2)cc1 ; Ki = < 1000 nM

---

protocol: Drug metabolism in human liver microsomes assessed as compound remaining after 1 hr
Assay type: ADME
condition_notes: read-out: Drug metabolism
measurement_name: remaining at 1 h (%)
Give bare numbers, in %.

Entry Cc1ccc(S(=O)(=O)NCc2ccc(C(=O)NCCN(Cc3ccccc3)C(C)C)cc2)cc1 ; remaining at 1 h = 0.07

---

Organism: Cavia porcellus
protocol: Antagonist activity at delta opioid receptor in guinea pig caudate assessed as inhibition of SNC-80-stimulated [35S]-GTP[gammaS] binding
For each of the molecules below, state its Ke.
Give bare numbers, in nM.

CC(C)[C@@H](CN1CC[C@@](C)(c2cccc(O)c2)[C@@H](C)C1)NC(=O)CCc1ccc(O)cc1    450

Parameters: items (list). Returns: Ke for each item.
1. CC(C)CC(=O)N1Cc2cc(O)ccc2C[C@@H]1C(=O)N[C@H](CN1CC[C@@](C)(c2cccc(O)c2)[C@@H](C)C1)C(C)C
2. CC(C)[C@@H](CN1CC[C@@](C)(c2cccc(O)c2)[C@@H](C)C1)NC(=O)[C@@H](N)Cc1ccc(O)cc1
3. CC(C)[C@@H](CN1CC[C@@](C)(c2cccc(O)c2)[C@@H](C)C1)NC(=O)[C@@H]1Cc2ccc(O)cc2CN1

Result string:
628
452
327

Entry CC(C)[C@@H](CN1CC[C@@](C)(c2cccc(O)c2)[C@@H](C)C1)NC(=O)[C@H](N)Cc1ccc(O)cc1 ; Ke = 334

---

assayed_target: Mu-type opioid receptor (Homo sapiens)
Sequence (P35372 whole entry): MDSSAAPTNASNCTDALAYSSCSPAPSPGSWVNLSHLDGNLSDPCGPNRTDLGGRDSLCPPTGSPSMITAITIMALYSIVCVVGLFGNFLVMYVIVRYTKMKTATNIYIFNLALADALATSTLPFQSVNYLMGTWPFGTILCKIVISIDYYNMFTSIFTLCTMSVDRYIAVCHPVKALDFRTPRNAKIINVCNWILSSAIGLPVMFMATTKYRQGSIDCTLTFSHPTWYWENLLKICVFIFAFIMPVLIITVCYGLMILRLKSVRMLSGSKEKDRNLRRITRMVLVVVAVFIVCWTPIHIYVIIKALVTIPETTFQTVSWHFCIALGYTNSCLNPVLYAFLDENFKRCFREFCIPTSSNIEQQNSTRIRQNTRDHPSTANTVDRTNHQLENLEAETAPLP
measurement_name: IC50

Here are 3 compounds together with their reported answers.
COc1ccc(N2CCN(CCCNC(=O)Cn3c(=O)c4cccn4c4cccnc43)CC2)cc1    > 32 µM
CCc1ccc(S(=O)(=O)NCc2ccc(C(=O)NCCN(Cc3ccccc3)C(C)C)cc2)cc1    > 32 µM
Cc1ccc(S(=O)(=O)NCc2ccc(C(=O)NCCN(Cc3ccccc3)C(C)C)cc2)cc1    > 24 µM

Parameters: items (list). Returns: IC50 for each item.
1. Cc1ccnc2c1n1cccc1c(=O)n2CC(=O)NCCCN1CCN(c2ccc(Cl)cc2)CC1
2. Cc1ccc(S(=O)(=O)NCc2ccc(C(=O)NCCCN(Cc3ccccc3)C(C)C)cc2)cc1
3. COc1ccc(N2CCN(CCCNC(=O)Cn3c(=O)c4cccn4c4c(C)ccnc43)CC2)cc1

Result string:
["> 32 µM", "> 32 µM", "> 32 µM"]

---

protocol: Tmax in rat at 10 mg/kg, po
Type: ADME, organism-based
Parameters: dose 10 mg/kg, route oral
condition_notes: in vivo
measurement_name: Tmax (h)
Numbers only, in h.

Entry Cc1cc(C)cc([C@@H]2CCCN2Cc2ccc(Oc3ccc(C(N)=O)cc3F)cc2)c1 [ATICAPRANT] ; Tmax = 2

---

assayed_target: Kappa-type opioid receptor (Homo sapiens, UniProt P41145)
Sequence (P41145 whole entry): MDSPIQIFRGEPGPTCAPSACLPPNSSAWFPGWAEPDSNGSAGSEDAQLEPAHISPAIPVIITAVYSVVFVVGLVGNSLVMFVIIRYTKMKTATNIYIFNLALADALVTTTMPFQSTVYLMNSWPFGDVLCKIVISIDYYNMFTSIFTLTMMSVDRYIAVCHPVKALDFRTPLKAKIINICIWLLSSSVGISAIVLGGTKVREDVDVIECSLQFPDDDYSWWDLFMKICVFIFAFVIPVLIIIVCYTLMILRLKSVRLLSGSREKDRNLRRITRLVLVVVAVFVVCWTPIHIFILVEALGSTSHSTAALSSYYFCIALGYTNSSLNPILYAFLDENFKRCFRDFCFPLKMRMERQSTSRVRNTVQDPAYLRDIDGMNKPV
protocol: Inhibition of kappa opioid receptor (unknown origin) using dynorphin A by high content imaging beta-arrestin translocation assay
For each of the molecules below, state its IC50.
One number for each entry, in nM.

Here are 2 molecules together with their reported answers.
COc1ccc(N2CCN(CCCNC(=O)Cn3c(=O)c4cccn4c4c(C)ccnc43)CC2)c(OC)c1    4
Cc1ccc(S(=O)(=O)NCc2ccc(C(=O)NCCN(Cc3ccccc3)C(C)(C)C)cc2)cc1    30

Now look at this entry.
Entry COc1ccc(N2CCN(CCCNC(=O)Cn3c(=O)c4cccn4c4cccnc43)CC2)cc1 ; IC50 = 1300
